Source listed as the RNAGym collection of RNA variant scans (doi:10.7554/elife.80360).

B1: HDV Ribozyme (parent)
chain: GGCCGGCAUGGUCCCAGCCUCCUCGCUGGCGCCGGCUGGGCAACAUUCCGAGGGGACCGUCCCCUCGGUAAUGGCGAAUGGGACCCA

- Variants of: B1
- assay_procedure: self-cleavage, relative activity (ratio to wild type); higher = more cleavage; co-transcriptional
Classes based on self-cleavage: one (below 0.2), two (0.2 to below 0.6), three (0.6 or more)

Answered examples (10):
{"monomer_sequence": "GGCCGGCAUAGUCCCAGCCUCCUCGCUGGCGCCGGCUGGGCAACAUUCCGAGGGGACCGUCCCCUCGGUAAUGGAGAAUGGGACCCA [G10A C75A]", "qualitative_label": "one"}
{"monomer_sequence": "GGUCGGCAUGGUCCCAGCCUCCUCGCUGGAGCCGGCUGGGCAACAUUCCGAGGGGACCGUCCCCUCGGUAAUGGCGAAUGGGACCCA [C3U C30A]", "qualitative_label": "two"}
{"monomer_sequence": "GGCCGGCAUGGUCCCAGCCUACUCGCUGGCGCCGGCUGGGCAACAUUCCGAGGGGACCGUCCCCUCGGUAAUGGUGAAUGGGACCCA [C21A C75U]", "qualitative_label": "one"}
{"monomer_sequence": "GGCCGGCAUGGUCCCAGCCUCCUCGCUGGCGCCGGCUGGGCAACAUUCCGAGGGGACCGUCCCCUCGGUAAUGGCGAAUGGGACCAU [C86A A87U]", "qualitative_label": "three"}
{"monomer_sequence": "GGCCGGCAUGGUCCCAGCCUCCUCGCUGGCGCCGGCUGGGCAACAUUCUGAGGGGACCGUCCGCUCGGUAAUGGCGAAUGGGACCCA [C49U C63G]", "qualitative_label": "two"}
{"monomer_sequence": "GGCCGGCAUGGUCCUAGCCUCCUCGCUGGCGCCGGCUGGGCAACAUUCCGAGGGGACCGUCCCCUCGGUAAUGGCGAAUGGGACACA [C15U C85A]", "qualitative_label": "three"}
{"monomer_sequence": "GGCCGGCAUGGUCCCAGCCUCCUCGCUGGGGCCGGCUGGGCAACAUUCCGAGGGGACCGUCCCCUCUGUAAUGGCGAAUGGGACCCA [C30G G67U]", "qualitative_label": "one"}
{"monomer_sequence": "GGCCGGCAUGGUCCCAGCCUCCUCACAGGCGCCGGCUGGGCAACAUUCCGAGGGGACCGUCCCCUCGGUAAUGGCGAAUGGGACCCA [G25A U27A]", "qualitative_label": "one"}
{"monomer_sequence": "GGCCGGCAUGGUCCCAGCCUCCUCGCUGGCGCCGACUGCGCAACAUUCCGAGGGGACCGUCCCCUCGGUAAUGGCGAAUGGGACCCA [G35A G39C]", "qualitative_label": "one"}
{"monomer_sequence": "GGCCGGCAUGGUCCCAGCCUCCUCGCUGGCGCCGGCUGGGCAACAUUCCGAGGGGACCGUCCCCUCGGCAAUGGCGGAUGGGACCCA [U69C A77G]", "qualitative_label": "three"}

Q: Using the reported self-cleavage, which band applies to GGCCGGUAUGGUCCCAGCCUCCUCGCUGGCGCCGGCUGGGCAACAUUCCGAGGGGACCGUCCCCUCGGAAAUGGCGAAUGGGACCCA [C7U U69A] ?
A: three

Q: Using the reported self-cleavage, which band applies to GGCCGGCAUGGUCCCAGCCUCCUCGCUGGCGCCGGCUGGGCCACAUGCCGAGGGGACCGUCCCCUCGGUAAUGGCGAAUGGGACCCA [A42C U47G] ?
A: one

Q: Using the reported self-cleavage, which band applies to GGCCGGCAUGAUCCCAGCCUCCUCGCUGGCGCCGGCUGGGCAACAUUCCGAGGGGACCGUCCCCUCGGCAAUGGCGAAUGGGACCCA [G11A U69C] ?
A: two

Q: Using the reported self-cleavage, which band applies to GGCCGGCAUUGUCCCAGCCUCCUCGCUGGCGCCGGCUGGGCAACAUUCCGAGGGGACCGUCCCCUCGGUAGUGGCGAAUGGGACCCA [G10U A71G] ?
A: three

Q: Using the reported self-cleavage, which band applies to GGCCGGCAUGGUCCCAGCCUCCUCGCUGGCGCCUGCUGGGCAACAUUCCGAGGGGACCGUCCCCUCGGUAAUGGCGACUGGGACCCA [G34U A78C] ?
A: one

Q: Using the reported self-cleavage, which band applies to GGCCGGCAUGGUCCCAGCCUCCUCUCUGGCGCCGGCUGGGCAACAUUCCGAGGGGACCGUACCCUCGGUAAUGGCGAAUGGGACCCA [G25U C61A] ?
A: two
